- target entity: free FIXa (activated Factor IX) (UniProt P00740 47-191; P00740 227-461)
- experiment: BLI
A collection of binders and their measured Kd
Number only, in nM; omit the unit.

binder	unit info	Kd
BIIB-9-1274 (antibody, V domains shown) VH: QVQLVQSGAEVKKPGASVKVSCKASGYTFTSYYMHWVRQAPGQGLEWMGIINPSGGSTSYAQKFQGRVTMTRDTSTSTVYMELSSLRSEDTAVYYCARDTGGYAFDIWGQGTLVTVSS VL: DIQMTQSPSSVSASVGDRVTITCRASQGISSWLAWYQQKPGKAPKLLIYAASSLQSGVPSRFSGSGSGTDFTLTISSLQPEDFATYYCQQANSFPFTFGGGTKVEIK	nM	28.4

Read the next record carefully.
## Input GET /values?readout=Kd&item= BIIB-9-1285 (antibody, V domains shown) VH: QVQLVQSGAEVKKPGASVKVSCKASGYTFTSYYMVWVRQAPGQGLEWMGIINPSGGSTSYAQKFQGRVTMTRDTSTSTVYMELSSLRSEDTAVYYCARVPTYRYSYLAFDIWGQGTMVTVSS VL: EIVMTQSPATLSVSPGERATLSCRASQSVSSNLAWYQQKPGQAPRLLIYGASTRATGIPARFSGSGSGTEFTLTISSLQSEDFAVYYCQQASNFPPTFGGGTKVEIK
## Output 60.2

Value source: patent US20230192896A1
